# assay.target: IRAK-4 (Homo sapiens)
# Sequence (Q9NWZ3 1-460): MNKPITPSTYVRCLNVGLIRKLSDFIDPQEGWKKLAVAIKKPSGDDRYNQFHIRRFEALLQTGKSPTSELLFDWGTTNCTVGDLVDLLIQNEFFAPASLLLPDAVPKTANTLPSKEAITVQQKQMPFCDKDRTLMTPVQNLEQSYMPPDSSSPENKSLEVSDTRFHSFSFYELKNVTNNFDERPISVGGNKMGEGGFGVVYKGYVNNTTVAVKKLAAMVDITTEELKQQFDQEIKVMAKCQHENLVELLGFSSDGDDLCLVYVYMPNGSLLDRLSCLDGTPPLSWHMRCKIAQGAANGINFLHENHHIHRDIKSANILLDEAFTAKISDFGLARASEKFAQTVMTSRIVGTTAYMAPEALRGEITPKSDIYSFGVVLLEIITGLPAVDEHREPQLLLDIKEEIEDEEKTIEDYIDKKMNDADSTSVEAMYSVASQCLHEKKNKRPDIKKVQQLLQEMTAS
# experimental.details: IRAK-4 ELISA, PBMC degradation
# Format: cell-based
# Set-up: endogenous in cells; host or cells: PBMC
# experimental.setup: treated overnight
Recorded measurements of Dmax, one per entry

Recorded Dmax, per entry:
molecule	assay.target	value
CN1CC(Oc2cc3nn(C4CCN(CC5CCN(c6ccc7c(c6)C(=O)N(C6CCC(=O)NC6=O)C7=O)CC5)CC4)cc3cc2NC(=O)c2cnn3cccnc23)C1 (stereo not drawn) [Example 152]	IRAK-4 (Homo sapiens)	< 70%
O=C1CCC(N2C(=O)c3ccc(N4CCN(C[C@H]5CC[C@H](n6cc7cc(NC(=O)c8cnn9cccnc89)c(OCC(F)F)cc7n6)CC5)CC4)cc3C2=O)C(=O)N1 (stereo partly drawn) [Example 430]	IRAK-4 (Homo sapiens)	≥ 90%
O=C1CCC(N2C(=O)c3ccc(N4CCC(CN5CCC([C@H](F)Cn6cc7cc(NC(=O)c8cnn9cccnc89)c(OCC8CC8)cc7n6)CC5)CC4)cc3C2=O)C(=O)N1 (stereo partly drawn) [Example 182]	IRAK-4 (Homo sapiens)	≥ 90%
CC(C)Oc1cc2c(cc1NC(=O)c1cnn3cccnc13)CN(C1CCN(CC(F)(F)C3CN(c4ccc5c(c4)C(=O)N(C4CCC(=O)NC4=O)C5=O)C3)CC1)C2=O (stereo not drawn) [Example 40]	IRAK-4 (Homo sapiens)	80 to 90%
CC(C)Oc1cc2c(cc1NC(=O)c1cnn3cccnc13)CN([C@H]1CC[C@@H](N3CCN(c4ccc5c(c4)C(=O)N(C4CCC(=O)NC4=O)C5=O)CC3)CC1)C2=O (stereo partly drawn) [Example 67]	IRAK-4 (Homo sapiens)	≥ 90%
CC(C)Oc1cc2nn(C3CCN(CC(F)(F)C4CN(c5ccc6c(c5)C(=O)N(C5CCC(=O)NC5=O)C6=O)C4)CC3)cc2cc1NC(=O)c1cnn2cccnc12 (stereo not drawn) [Example 147]	IRAK-4 (Homo sapiens)	≥ 90%

Entry CCOc1cc2nn(C3CCN(CC4(F)CN(c5ccc6c(c5)C(=O)N(C5CCC(=O)NC5=O)C6=O)C4)CC3)cc2cc1NC(=O)c1cnn2cccnc12 (stereo not drawn) [Example 195] : reported Dmax = ? ≥ 90%

Please answer likewise for O=C1CCC(N2Cc3cc(N4CC(CN5CCC(N6Cc7cc(NC(=O)c8cnn9cccnc89)c(OCC8CC8)cc7C6=O)CC5)C4)ccc3C2=O)C(=O)N1 (stereo not drawn) [Example 29] 80 to 90%

CC(C)Oc1cc2c(cc1NC(=O)c1cnn3cccnc13)CN(C1CCN(CC3(O)CCN(c4ccc5c(c4)C(=O)N(C4CCC(=O)NC4=O)C5=O)CC3)CC1)C2=O (stereo not drawn) [Example 109] ? ≥ 90%
